- test-target: RSV F on RSV subtype B virus (mKate-RSV B 18537) (respiratory syncytial virus B 18537, UniProt P13843 26-574)
- Sequence (P13843 26-574): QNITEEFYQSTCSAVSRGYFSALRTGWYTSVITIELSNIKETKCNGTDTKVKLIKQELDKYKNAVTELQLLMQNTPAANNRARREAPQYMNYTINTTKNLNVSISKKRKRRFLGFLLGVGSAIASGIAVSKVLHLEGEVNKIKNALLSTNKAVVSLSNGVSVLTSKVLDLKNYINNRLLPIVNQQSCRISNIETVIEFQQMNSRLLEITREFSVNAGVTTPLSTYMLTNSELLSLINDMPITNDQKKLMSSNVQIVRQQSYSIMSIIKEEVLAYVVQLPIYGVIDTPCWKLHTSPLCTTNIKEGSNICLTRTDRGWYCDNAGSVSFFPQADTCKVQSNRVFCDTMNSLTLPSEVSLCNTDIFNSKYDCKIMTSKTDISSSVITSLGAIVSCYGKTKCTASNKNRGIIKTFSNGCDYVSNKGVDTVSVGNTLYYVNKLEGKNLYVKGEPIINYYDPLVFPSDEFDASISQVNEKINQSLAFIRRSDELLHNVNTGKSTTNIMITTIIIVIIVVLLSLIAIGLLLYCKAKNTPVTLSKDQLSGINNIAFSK
- measurement-description: cell-based or functional assay
Criterion: Neut IC50 subtype B strictly under 0.5 µg/mL. Met: true (1). Not met: false (0).

### Prompt Report whether reported Neut IC50 subtype B is lower than 0.5 µg/mL (strictly) for ADI-14370 (antibody, V domains shown, full-length IgG; also called Ab 38) VH: EVQLVESGGGVVQPGKSLRLSCAASGFSFSTFAMHWVRQAPGKGLEWVAVISYDGSNKFYADSVKGRFTISRDSSKNTLYLQMNSLRAEDTAVYYCARGGYSSGWYVTHFDYWGQGTLVTVSS VL: QSVLTQPPSASGSPGQSVTISCTGTSSDVGGYNYVSWYQQHPGKAPKLMIYEVSKRPSGVPDRFSGSKSGNTASLTVSGLQAEDEADYYCSSYAGSNNLYVFGTGTKLTVL
### Response false (0)

### Prompt Report whether reported Neut IC50 subtype B is lower than 0.5 µg/mL (strictly) for ADI-25462 (antibody, V domains shown, full-length IgG) VH: EVQLVESGGGLVKPGGSLRLSCAASGFTFSSYSMNWVRQAPGKGLEWVSSISSSSSYIYYADSVKGRFTISRHNAKNSLYLQMNSLRAEDTAVYYCARGSSSSWFCFDYWGQGTLVTVSS VL: SYVLTQPPSVSGAPGQRVTISCTGSSSNIGAGYDVHWYQQLPGTAPKLLIYGNSNRPSGVPDRFSGSKSGTSASLAITGLQAEDEADYYCQSYDSSLSYVFGTGTKLTVL
### Response true (1)

### Prompt Report whether reported Neut IC50 subtype B is lower than 0.5 µg/mL (strictly) for ADI-14378 (antibody, V domains shown, full-length IgG; also called Ab 46) VH: QVQLVESGGGLVQPGGSLRLSCAASGFTFSSYWMHWVRQAPGKGLVWVSRINSDGSSPTYADSVKGRFTISRDNAKNTVFLQMNSLRAEDTAVYYCARESWELIRGDAFDIWGQGTTVTVSS VL: DIQMTQSPSSLSASVGDRVTITCRASQSISSSLNWYQQKPGKAPNLLIYAASTLQSGVPSRFSGSGSGTDFTLTISSLQPEDFATYYCQQSYRTPRTFGQGTKVEIK
### Response false (0)

### Prompt Report whether reported Neut IC50 subtype B is lower than 0.5 µg/mL (strictly) for ADI-14368 (antibody, V domains shown, full-length IgG; also called Ab 36) VH: EVQLVESGGGLVKPGGSLRLSCAASGFTFINAWMSWVRQAPGKGLEWVGRIKSKADGGTTDDAAPVKGRFTISRDDSKNTLYLQMNSLKIEDTAVYYCATDVLPLYNWNLGWNFDLWGRGTLVTVSS VL: SYVLTQPPSVSVAPGKTARITCGGNNIADKSVHWYQQKPGQAPVLVMYYDTDRPSGIPERFSGFNSGNTATLTISRVEAGDEADYYCQVWDSSSDHVVFGGGTKVTVL
### Response false (0)

### Prompt Report whether reported Neut IC50 subtype B is lower than 0.5 µg/mL (strictly) for ADI-14364 (antibody, V domains shown, full-length IgG; also called Ab 32) VH: QVQLVQSGAEVKKPGESLKISCKGSGYSFTSHWIGWVRQMPGKGLEWMGITDPGDSDTRYSPSFQGQVTISADKSISTAYLQWSSLKASDTAMYYCAREPRRWMTTETNGPYYFDNWGQGTLVTVSS VL: SYVLTQPPSVSVAPGKTARITCGGNNIGSKSVHWYQQKPGQAPVLVIYYDSDRPSGIPERFSGSNSGNTATLTISRVEAGDEADYYCQVWDSSSDNRVFGGGTKVTVL
### Response false (0)

### Prompt Report whether reported Neut IC50 subtype B is lower than 0.5 µg/mL (strictly) for ADI-19427 (antibody, V domains shown, full-length IgG) VH: EVQLVESGGGLVKPGGSLRLSCAASGFTFSSYSMNWVRQAPGKGLEWVSSISSSSSFISYADSVKGRFTISRDSAKNSLYLQMNSLRAEDTAVYYCARDHPNWNGLAYFDYWGQGTLVTVSS VL: QSVLTQPPSISGAPGQRVTISCTGSSSNIGAGYDVQWHQQLPGTAPKLLIYGNSNRPSGVPDRFSGSKSGTSASLAITGLQAEDEADYYCQSYDSSLSGWVFGGGTKLTVL
### Response true (1)

### Prompt Report whether reported Neut IC50 subtype B is lower than 0.5 µg/mL (strictly) for ADI-19475 (antibody, V domains shown, full-length IgG) VH: EVQLLESGAEVKKPGASVKVTCKASGYTFTHFGINWVRQAPGQGLEWLGWISAYNGNTNYVQKIQGRVTMTTDTSTNTAYMELRSLRSDDTAVYYCARGPPVEAAGTFDYWGQGTLVTVSS VL: DIVLTQSPLSLPVTLGQPASISCRSSQSLVYSDGNTYLTWFQQRPGQSPRRLIYKVSNRDSGVPDRFSGSGSGTDFTLQISRVEAEDVGVYYCMQGTHWPFTFGPGTKVEIK
### Response true (1)

### Prompt Report whether reported Neut IC50 subtype B is lower than 0.5 µg/mL (strictly) for ADI-24857 (antibody, V domains shown, full-length IgG) VH: EVQLLESGGGLVKPGGSLRLSCAASGFTFSSYSMNWVRQAPGKGLEWVSSISSSSSYIYYADSVKGRFTISRDNAKNSLYLQMNSLRAEDTAVYYCAREGYYYGSGSYLDYWGQGTLVTVSS VL: QSVVTQPPSVSGAPGQRVTISCTGSSSNIGAGYDVHWYQQLPGTAPKLLIYGNSNRPSGVPDRFSGSKSGTSASLAITGLQAEDEADYYCQSYDSSLSVVFGGGTKLTVL
### Response false (0)

### Prompt Report whether reported Neut IC50 subtype B is lower than 0.5 µg/mL (strictly) for ADI-25524 (antibody, V domains shown, full-length IgG) VH: EVQLLESGGGLVKPGGSLRLSCAASGFTFSSYSMNWVRQAPGKGLEWVSSISSSSSYIYYADSVKGRFTISRDNAKNSLYLQMNSLRAEDTAVYYCAREWSPIVVVTNAFDIWGQGTMVTVSS VL: QSVLTQPPSVSGAPGQRVTISCTGSSSNIGAGYDVHWYQQLPGTAPKLLIYGNSNRPSGVPDRFSGSKSGTSASLAITGLQAEDEADYYCQSYDSSLSGWVFGGGTKVTVL
### Response false (0)
